Attribute: % Max Inh. of Lysis (alternative pathway hemolysis of rabbit RBC, 25% NHS, 30 min)
Target Under Test: human complement C5 (human, UniProt P01031 19-1676)
Sequence (P01031 19-1676 limits assumed): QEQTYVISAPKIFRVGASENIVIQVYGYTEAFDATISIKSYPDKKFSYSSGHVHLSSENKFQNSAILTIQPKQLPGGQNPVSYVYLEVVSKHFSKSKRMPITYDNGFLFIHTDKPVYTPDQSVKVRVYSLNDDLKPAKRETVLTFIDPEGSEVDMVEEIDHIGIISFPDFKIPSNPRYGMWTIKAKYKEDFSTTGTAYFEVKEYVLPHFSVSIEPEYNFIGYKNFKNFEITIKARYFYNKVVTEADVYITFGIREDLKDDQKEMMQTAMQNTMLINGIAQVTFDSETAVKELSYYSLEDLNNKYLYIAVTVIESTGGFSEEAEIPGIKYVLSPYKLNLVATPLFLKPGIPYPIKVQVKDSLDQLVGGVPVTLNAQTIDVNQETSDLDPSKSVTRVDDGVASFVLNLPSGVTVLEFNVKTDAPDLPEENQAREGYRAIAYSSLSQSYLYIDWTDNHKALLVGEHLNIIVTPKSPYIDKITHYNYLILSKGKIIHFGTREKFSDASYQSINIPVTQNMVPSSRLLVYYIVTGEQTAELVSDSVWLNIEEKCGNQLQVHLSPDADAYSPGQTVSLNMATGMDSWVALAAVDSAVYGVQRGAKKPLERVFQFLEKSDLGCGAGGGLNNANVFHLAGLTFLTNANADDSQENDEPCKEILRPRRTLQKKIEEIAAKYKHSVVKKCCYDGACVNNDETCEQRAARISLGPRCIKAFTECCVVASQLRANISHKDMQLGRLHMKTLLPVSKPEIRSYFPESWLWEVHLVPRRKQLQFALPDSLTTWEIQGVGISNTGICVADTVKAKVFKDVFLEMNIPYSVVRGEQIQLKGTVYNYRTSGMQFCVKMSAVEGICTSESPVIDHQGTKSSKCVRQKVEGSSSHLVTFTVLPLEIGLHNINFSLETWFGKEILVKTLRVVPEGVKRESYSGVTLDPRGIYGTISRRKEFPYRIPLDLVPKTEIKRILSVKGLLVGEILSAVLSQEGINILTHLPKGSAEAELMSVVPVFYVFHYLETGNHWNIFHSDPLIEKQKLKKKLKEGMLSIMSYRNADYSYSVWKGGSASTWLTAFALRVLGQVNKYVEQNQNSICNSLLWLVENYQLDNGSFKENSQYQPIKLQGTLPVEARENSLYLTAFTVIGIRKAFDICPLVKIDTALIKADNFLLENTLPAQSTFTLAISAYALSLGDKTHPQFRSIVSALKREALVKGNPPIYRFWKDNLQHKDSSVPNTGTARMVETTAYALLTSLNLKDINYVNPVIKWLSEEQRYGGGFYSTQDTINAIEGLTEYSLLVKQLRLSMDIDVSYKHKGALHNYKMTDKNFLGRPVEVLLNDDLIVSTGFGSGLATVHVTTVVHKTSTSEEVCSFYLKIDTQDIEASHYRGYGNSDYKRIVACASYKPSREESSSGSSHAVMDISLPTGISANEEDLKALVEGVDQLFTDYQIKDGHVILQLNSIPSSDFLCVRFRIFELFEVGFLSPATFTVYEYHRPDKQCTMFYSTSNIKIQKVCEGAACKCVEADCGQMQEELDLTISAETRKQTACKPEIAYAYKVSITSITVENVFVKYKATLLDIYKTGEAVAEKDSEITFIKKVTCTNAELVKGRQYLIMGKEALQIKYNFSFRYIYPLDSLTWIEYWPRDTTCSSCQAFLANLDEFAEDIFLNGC
Protocol Details: cell-based or functional assay
Recorded Endpoint: % Max Inh. of Lysis (alternative pathway hemolysis of rabbit RBC, 25% NHS, 30 min) (%)

Binder	Observed Measurement
H4H12170P (antibody, IgG4, V domains shown) VH: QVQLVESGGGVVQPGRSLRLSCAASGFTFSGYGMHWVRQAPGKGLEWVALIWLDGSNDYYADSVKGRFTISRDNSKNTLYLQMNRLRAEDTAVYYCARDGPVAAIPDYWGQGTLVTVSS VL: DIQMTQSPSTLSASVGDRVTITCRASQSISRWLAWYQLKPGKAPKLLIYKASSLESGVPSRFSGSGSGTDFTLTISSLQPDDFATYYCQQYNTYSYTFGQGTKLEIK	88.7
H4H12171P (antibody, V domains shown) VH: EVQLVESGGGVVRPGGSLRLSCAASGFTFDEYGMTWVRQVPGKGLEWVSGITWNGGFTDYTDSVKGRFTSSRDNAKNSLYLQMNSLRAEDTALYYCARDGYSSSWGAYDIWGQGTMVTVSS VL: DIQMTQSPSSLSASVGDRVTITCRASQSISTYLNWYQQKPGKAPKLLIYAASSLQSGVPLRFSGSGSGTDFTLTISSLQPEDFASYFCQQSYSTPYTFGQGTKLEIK	36.6
H4H12175P (antibody, V domains shown) VH: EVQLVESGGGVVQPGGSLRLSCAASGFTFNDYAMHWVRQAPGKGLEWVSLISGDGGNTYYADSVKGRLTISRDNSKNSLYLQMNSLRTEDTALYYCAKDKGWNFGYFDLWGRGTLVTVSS VL: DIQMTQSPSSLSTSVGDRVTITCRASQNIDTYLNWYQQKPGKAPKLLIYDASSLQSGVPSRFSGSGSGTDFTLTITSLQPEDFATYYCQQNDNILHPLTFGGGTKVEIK	77.8
H4H12161P (antibody, V domains shown) VH: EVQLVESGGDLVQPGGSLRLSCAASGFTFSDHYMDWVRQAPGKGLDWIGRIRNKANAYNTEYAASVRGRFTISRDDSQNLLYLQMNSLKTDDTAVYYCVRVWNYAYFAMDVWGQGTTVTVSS VL: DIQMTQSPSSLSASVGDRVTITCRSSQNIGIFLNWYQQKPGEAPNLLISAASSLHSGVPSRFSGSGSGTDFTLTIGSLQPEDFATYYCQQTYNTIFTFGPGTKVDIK	59.2

These data points were gathered from patent US20240392039A1.
